The measured values listed here are drawn from patent US4788211A.

assay: iv LD50 in mice; conditions: mouse, in vivo
Property: LD50

// returns reported LD50 for input N=C(N)NCCCCCCCCC(O)CCCCCCCC1NC(=N)NC1CC(O)CNC(=N)N (stereo not shown)
~1.5 mg/kg
